EXPERIMENT_SUMMARY: Phase I trial of oral PCLX-001: plasma pharmacokinetics, noncompartmental analysis (Phoenix WinNonlin 8.3)
Type: in vivo, human
CONDITION: human, plasma, po, 20 mg, Table 6; Patient 115-002-001; Day 1; 20 mg QD oral; Pantoprazole No

- MOLECULAR_STRING: "Cc1c(NS(=O)(=O)c2c(Cl)cc(-c3ccnc(N4CCNCC4)c3)cc2Cl)c(CC(C)C)nn1C"
  AUC(0-inf) / ng·h/mL: 2030

---

EXPERIMENT_SUMMARY: Phase I trial of oral PCLX-001: plasma pharmacokinetics, noncompartmental analysis (Phoenix WinNonlin 8.3)
Type: in vivo, human
CONDITION: human, plasma, po, 70 mg, Table 8; Patient 115-002-007; Day 1; 70 mg QD oral; Pantoprazole Yes

- MOLECULAR_STRING: "Cc1c(NS(=O)(=O)c2c(Cl)cc(-c3ccnc(N4CCNCC4)c3)cc2Cl)c(CC(C)C)nn1C"
  Cmax / ng/mL: 158

---

EXPERIMENT_SUMMARY: Phase I trial of oral PCLX-001: plasma pharmacokinetics, noncompartmental analysis (Phoenix WinNonlin 8.3)
Type: in vivo, human
CONDITION: human, plasma, po, 40 mg, Table 7; Patient 115-002-005; Day 15; 40 mg QD oral; Pantoprazole Yes

- MOLECULE: "Cc1c(NS(=O)(=O)c2c(Cl)cc(-c3ccnc(N4CCNCC4)c3)cc2Cl)c(CC(C)C)nn1C [PCLX-001]"
  QUANTITY_UNIT: "ng·h/mL"
  AUC(0-inf): 7060

---

EXPERIMENT_SUMMARY: Phase I trial of oral PCLX-001: plasma pharmacokinetics, noncompartmental analysis (Phoenix WinNonlin 8.3)
Type: in vivo, human
CONDITION: human, plasma, po, 40 mg, Table 7; Patient 115-009-001; Day 1; 40 mg QD oral; Pantoprazole No; read-out: Tmax
MEASURE: Tmax (h)

- COMPOUND: "Cc1c(NS(=O)(=O)c2c(Cl)cc(-c3ccnc(N4CCNCC4)c3)cc2Cl)c(CC(C)C)nn1C [PCLX-001]"
  MEASURE: "Tmax"
  NUMBER: 1

---

EXPERIMENT_SUMMARY: Phase I trial of oral PCLX-001: plasma pharmacokinetics, noncompartmental analysis (Phoenix WinNonlin 8.3)
Assay type: in vivo, human
CONDITION: human, plasma, oral, 20 mg, Table 4; Mean; not on Pantoprazole; 20 mg; N 3; Day 1

- COMPOUND: "Cc1c(NS(=O)(=O)c2c(Cl)cc(-c3ccnc(N4CCNCC4)c3)cc2Cl)c(CC(C)C)nn1C [PCLX-001]"
  AUC(0-inf), ng·h/mL: 1960

---

EXPERIMENT_SUMMARY: Phase I trial of oral PCLX-001: plasma pharmacokinetics, noncompartmental analysis (Phoenix WinNonlin 8.3)
Format: in vivo, human
CONDITION: human, plasma, po, 20 mg, Table 1A; Patient 115-002-001 (Patient 1); Day 15; 20 mg oral daily
MEASURE: AUC(0-inf) (ng·h/mL)

- COMPOUND: "Cc1c(NS(=O)(=O)c2c(Cl)cc(-c3ccnc(N4CCNCC4)c3)cc2Cl)c(CC(C)C)nn1C [PCLX-001]"
  NUMBER: 3500

---

EXPERIMENT_SUMMARY: Phase I trial of oral PCLX-001: plasma pharmacokinetics, noncompartmental analysis (Phoenix WinNonlin 8.3)
Assay type: in vivo, human
CONDITION: human, plasma, po, 100 mg, Table 9; Patient 115-002-012; Day 15; 100 mg QD oral; Pantoprazole No

- MOLECULAR_STRING: "Cc1c(NS(=O)(=O)c2c(Cl)cc(-c3ccnc(N4CCNCC4)c3)cc2Cl)c(CC(C)C)nn1C"
  Cmax (ng/mL): 1530

---

EXPERIMENT_SUMMARY: Phase I trial of oral PCLX-001: plasma pharmacokinetics, noncompartmental analysis (Phoenix WinNonlin 8.3)
Assay type: in vivo, human
CONDITION: human, plasma, po, 100 mg, Table 9; Patient 115-002-011; Day 1; 100 mg QD oral; Pantoprazole No; read-out: Half-life (converted)

- MOLECULE: "Cc1c(NS(=O)(=O)c2c(Cl)cc(-c3ccnc(N4CCNCC4)c3)cc2Cl)c(CC(C)C)nn1C [PCLX-001]"
  half-life, h: 9.6

---

EXPERIMENT_SUMMARY: Phase I trial of oral PCLX-001: plasma pharmacokinetics, noncompartmental analysis (Phoenix WinNonlin 8.3)
Format: in vivo, human
CONDITION: human, plasma, po, 40 mg, Table 7; Patient 115-009-001; Day 1; 40 mg QD oral; Pantoprazole No

- MOLECULAR_STRING: "Cc1c(NS(=O)(=O)c2c(Cl)cc(-c3ccnc(N4CCNCC4)c3)cc2Cl)c(CC(C)C)nn1C"
  Cmax, ng/mL: 1670

---

EXPERIMENT_SUMMARY: Phase I trial of oral PCLX-001: plasma pharmacokinetics, noncompartmental analysis (Phoenix WinNonlin 8.3)
Format: in vivo, human
CONDITION: human, plasma, po, 20 mg, Table 6; Patient 115-002-004; Day 15; 20 mg QD oral; Pantoprazole No; read-out: AUClast or AUCtau

- MOLECULAR_STRING: "Cc1c(NS(=O)(=O)c2c(Cl)cc(-c3ccnc(N4CCNCC4)c3)cc2Cl)c(CC(C)C)nn1C"
  AUC(0-t), ng·h/mL: 1900

---

EXPERIMENT_SUMMARY: Phase I trial of oral PCLX-001: plasma pharmacokinetics, noncompartmental analysis (Phoenix WinNonlin 8.3)
Format: in vivo, human
CONDITION: human, plasma, po, 100 mg, Table 9; Patient 115-002-010; Day 1; 100 mg QD oral; Pantoprazole No; read-out: Half-life (converted)

- COMPOUND: "Cc1c(NS(=O)(=O)c2c(Cl)cc(-c3ccnc(N4CCNCC4)c3)cc2Cl)c(CC(C)C)nn1C [PCLX-001]"
  QUANTITY_UNIT: "h"
  half-life: 7.17

---

EXPERIMENT_SUMMARY: Phase I trial of oral PCLX-001: plasma pharmacokinetics, noncompartmental analysis (Phoenix WinNonlin 8.3)
Assay type: in vivo, human
CONDITION: human, plasma, po, 40 mg, Table 7; Patient 115-009-001; Day 1; 40 mg QD oral; Pantoprazole No
MEASURE: AUC(0-inf) (ng·h/mL)

- COMPOUND: "Cc1c(NS(=O)(=O)c2c(Cl)cc(-c3ccnc(N4CCNCC4)c3)cc2Cl)c(CC(C)C)nn1C [PCLX-001]"
  NUMBER: 12600

---

EXPERIMENT_SUMMARY: Phase I trial of oral PCLX-001: plasma pharmacokinetics, noncompartmental analysis (Phoenix WinNonlin 8.3)
Type: in vivo, human
CONDITION: human, plasma, po, 20 mg, Table 6; Patient 115-002-004; Day 1; 20 mg QD oral; Pantoprazole No; read-out: Tmax

- MOLECULAR_STRING: "Cc1c(NS(=O)(=O)c2c(Cl)cc(-c3ccnc(N4CCNCC4)c3)cc2Cl)c(CC(C)C)nn1C"
  QUANTITY_UNIT: "h"
  Tmax: 2

---

EXPERIMENT_SUMMARY: Phase I trial of oral PCLX-001: plasma pharmacokinetics, noncompartmental analysis (Phoenix WinNonlin 8.3)
Assay type: in vivo, human
CONDITION: human, plasma, oral, 70 mg, Table 5; Mean (CV); on Pantoprazole; 70 mg; N 2; Day 1

- MOLECULE: "Cc1c(NS(=O)(=O)c2c(Cl)cc(-c3ccnc(N4CCNCC4)c3)cc2Cl)c(CC(C)C)nn1C [PCLX-001]"
  Cmax: "283 ng/mL"

---

EXPERIMENT_SUMMARY: Phase I trial of oral PCLX-001: plasma pharmacokinetics, noncompartmental analysis (Phoenix WinNonlin 8.3)
Format: in vivo, human
CONDITION: human, plasma, po, 70 mg, Table 8; Patient 115-002-007; Day 15; 70 mg QD oral; Pantoprazole Yes; read-out: Tmax
Description: The clinical trial is entitled “Phase I Trial of PCLX-001 in B-cell Non-Hodgkin Lymphoma and Advanced Solid Malignancies” and registered at clinicaltrials.gov as NCT04836195. It is a phase I dose-escalation study of oral PCLX-001, conducted in a multicenter, non-randomized, open-label, non-controlled design. The study is comprised of two parts: Part A (single-agent dose escalation) and Part B (single-agent expansion cohorts). […]

- MOLECULE: "Cc1c(NS(=O)(=O)c2c(Cl)cc(-c3ccnc(N4CCNCC4)c3)cc2Cl)c(CC(C)C)nn1C [PCLX-001]"
  Tmax / h: 4

---

EXPERIMENT_SUMMARY: Phase I trial of oral PCLX-001: plasma pharmacokinetics, noncompartmental analysis (Phoenix WinNonlin 8.3)
Assay type: in vivo, human
CONDITION: human, plasma, po, 40 mg, Table 7; Patient 115-009-001; Day 15; 40 mg QD oral; Pantoprazole No; read-out: Half-life (converted)
MEASURE: half-life (h)

- MOLECULE: "Cc1c(NS(=O)(=O)c2c(Cl)cc(-c3ccnc(N4CCNCC4)c3)cc2Cl)c(CC(C)C)nn1C [PCLX-001]"
  NUMBER: 11.9
